Cited source for all entries: PubChem BioAssay AID2060500

Test system: 596521-263-R-J1-PDC complex spheroids, viability % of control;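 also: spheroids exposed to drugs for 7 days before viability reading; 100% = DMSO vehicle control viability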
Assay: Anticancer human tumor 596521-263-R-J1-PDC patient-derived soft tissue sarcoma cell line growth inhibition [GQUAD]
Conditions: second compound 0.0316 µM; first compound 1 µM; stronger effect = lower value
Text: DNA G-quadruplex Stabilizer Agents in Combinations in Complex Spheroids A high-throughput screen of multi-cell type tumor spheroids was designed to identify active combinations of DNA G-quadruplex stabilizer agents and targeted small molecules. […] Compounds. […] If the clinical Cmax for an agent had not been determined, the highest concentration tested was 10 microM. […]
Exercise: state measured viability, T/C for each of the compounds provided.
Quick reminder: number only, in %, skip the unit.

Recorded result, COc1cc(C2c3cc4c(cc3C(OC3OC5COC(C)OC5C(O)C3O)C3COC(=O)C23)OCO4)cc(OC)c1O (stereo unspecified) + Cc1cnc(CNC(=O)c2c(=O)c3ccc(N4CCCN(C)CC4)nc3n3c2sc2ccccc23)cn1 , viability, T/C: 53.8

Recorded result, CC1COCCN1c1cc(C2(O)CC3CCC(C2)O3)c2cnn(-c3ccn[nH]3)c2n1 (stereo unspecified) + CN(C)c1ccc(Nc2c3ccc(NC(=O)CCN4CCCC4)cc3nc3cc(NC(=O)CCN4CCCC4)ccc23)cc1 , viability, T/C: 29.4

Recorded result, CC(=O)O[C@H]1C(=O)[C@@]2(C)[C@H]([C@H](OC(=O)c3ccccc3)[C@]3(O)C[C@H](OC(=O)[C@H](O)[C@@H](NC(=O)c4ccccc4)c4ccccc4)C(C)=C1C3(C)C)[C@]1(OC(C)=O)CO[C@@H]1C[C@@H]2O + Cc1cnc(CNC(=O)c2c(=O)c3ccc(N4CCCN(C)CC4)nc3n3c2sc2ccccc23)cn1 , viability, T/C: 27.8

Recorded result, COc1ncnc(C2CC2)c1-c1ncc2cnn(Cc3ccc(-c4nc(C(F)(F)F)cn4C(C)C)cc3)c2n1 + Cc1cnc(CNC(=O)c2c(=O)c3ccc(N4CCCN(C)CC4)nc3n3c2sc2ccccc23)cn1 , viability, T/C: 90.4

Recorded result, Nc1ccn(C2OC(CO)C(O)C2(F)F)c(=O)n1 (stereo unspecified) + Cc1cnc(CNC(=O)c2c(=O)c3ccc(N4CCCN(C)CC4)nc3n3c2sc2ccccc23)cn1 , viability, T/C: 51

Recorded result, COc1cc(C2c3cc4c(cc3C(OC3OC5COC(C)OC5C(O)C3O)C3COC(=O)C23)OCO4)cc(OC)c1O (stereo unspecified) + Cc1[nH]c2ccc(F)cc2c1-c1nc2c3cccnc3c3ncccc3c2[nH]1 , viability, T/C: 66.8
